Target: T1, human IL-23 (Sino Biological, CT048-H08H) (human, UniProt Q9NPF7 20-189; P29460 23-328)
T1 construct: also called human IL-23 protein; Human IL-23 p19
T1 sequence (looked up) 1: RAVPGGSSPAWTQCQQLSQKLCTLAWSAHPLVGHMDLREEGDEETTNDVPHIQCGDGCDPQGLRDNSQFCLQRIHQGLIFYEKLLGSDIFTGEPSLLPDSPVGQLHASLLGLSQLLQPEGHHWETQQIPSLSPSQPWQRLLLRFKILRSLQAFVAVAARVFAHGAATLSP
T1 sequence (looked up) 2: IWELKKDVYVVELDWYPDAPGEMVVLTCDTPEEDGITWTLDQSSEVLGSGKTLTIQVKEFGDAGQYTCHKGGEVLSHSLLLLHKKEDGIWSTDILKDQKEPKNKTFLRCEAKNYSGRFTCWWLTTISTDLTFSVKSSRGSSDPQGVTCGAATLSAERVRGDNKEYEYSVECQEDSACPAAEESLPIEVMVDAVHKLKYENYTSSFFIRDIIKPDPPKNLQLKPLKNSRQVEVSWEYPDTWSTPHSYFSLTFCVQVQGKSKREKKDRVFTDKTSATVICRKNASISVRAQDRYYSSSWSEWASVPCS
Assay: SPR (Biacore), Protein A capture of sample, 1:1 model
reported endpoint: kon

**Query** Fill in the blank: the reported kon of Hu29-19 (antibody, human IgG1, kappa, L234A L235A, V domains shown, humanized mAb29, IgG1/kappa) VH: QVTLKESGPVLVKPTETLTLTCTVSGFSLTNYAISWVRQPPGKGLEWLGVIWTGGGTNYNSGIKSRLTISKDNSKSQVVLTMTNMDPVDTARYYCVREGDYGSYAGAMDYWGQGTTVTVSS VL: DIVLTQSPDSLAVSLGERATINCRASESVDYYGISSMHWFQQKPGQPPKLLIYRASNLESGIPARFSGSGSRTDFTLTISSLQAEDVAVYYCQQANKDPYTFGGGTKVEIKR is ____.
**Result** 2.71e+06 M⁻¹ s⁻¹

**Query** Same thing, different binder: Hu38-1 (antibody, human IgG1, kappa, L234A L235A, V domains shown, humanized mAb38, IgG1/kappa) VH: EFQLVQSGAEVKKPGASVKVSCKASGYTFTDHNMNWVRQAPGQRLEWMGVINPNYGTTTYNQKFKGRVTITVDTSASTAYMELSSLRSEDTAVYYCARRGFAYWGQGTLVTVSS VL: DIVMTQTPLSLPVTPGEPASISCRSSKSLLYKDGKTYLNWYLQKPGQSPQLLIYLMSTRASGVPDRFSGSGSGTDFTLKISRVEAEDVGVYYCQQIAEYPFTFGSGTKLEIKR
**Result** 222000 M⁻¹ s⁻¹
